The values you see were collected from patent EP2050748A1.

System: OvCAR3 cells
Test: Cellular proliferation / Cytotoxicity assay (Alamar Blue)
Assay type: cell-based
Details: Homo sapiens, OVCAR-3, 48h incubation, Alamar Blue (Resazurin) cell viability, read-out: Anti-proliferative / Cytotoxic activity (OvCAR3 cells)
Parameter: IC50

{"Cpd Smiles": "C#Cc1cnc2nc(-c3ccc(CN4CCC(c5n[nH]c(-c6ccccn6)n5)CC4)cc3)c(-c3ccccc3)cn12", "IC50": "< 1000 nM"}
{"Cpd Smiles": "c1ccc(-c2cn3ncnc3nc2-c2ccc(CN3CCC(c4n[nH]c(-c5ccccn5)n4)CC3)cc2)cc1", "IC50": "> 1000 nM"}
{"Cpd Smiles": "Cc1nc2nc(-c3ccc(CN4CCC(c5n[nH]c(-c6ccccn6)n5)CC4)cc3)c(-c3ccccc3)cn2n1", "IC50": "< 1000 nM"}

Please state IC50 for every compound in the list that follows.
1. c1ccc(-c2cn3ccnc3nc2-c2ccc(CN3CCC(c4n[nH]c(-c5ncccn5)n4)CC3)cc2)cc1
2. Clc1cnc2nc(-c3ccc(CN4CCC(c5n[nH]c(-c6ccccn6)n5)CC4)cc3)c(-c3ccccc3)cn12
3. c1ccc(-c2cn3ccnc3nc2-c2ccc(CN3CCC(c4n[nH]c(-c5ccncc5)n4)CC3)cc2)cc1
4. Cc1cnc2nc(-c3ccc(CN4CCC(c5n[nH]c(-c6ccccn6)n5)CC4)cc3)c(-c3ccccc3)cn12

Result:
1: > 1000 nM; 2: < 1000 nM; 3: > 1000 nM; 4: < 1000 nM
